Measured IC50 (nM), HT29 meso+ cells, MTT proliferation assay, listed per entry for reference.
- TARGET OR SYSTEM: Mesothelin (SwissProt reference Q13421-3) (Homo sapiens, UniProt Q13421 37-622)
- EXPERIMENT: cell-based or functional assay
MEASURE: IC50 (nM), HT29 meso+ cells, MTT proliferation assay

BINDER: Example 104, conjugate of anti-mesothelin antibody MF-Ta (antibody, human IgG1, lambda, V domains shown, toxophore-linker on Lys NH, sites not given) VH: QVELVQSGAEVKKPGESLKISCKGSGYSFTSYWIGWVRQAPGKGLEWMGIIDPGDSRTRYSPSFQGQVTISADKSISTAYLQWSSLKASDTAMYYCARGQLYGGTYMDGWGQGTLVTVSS VL: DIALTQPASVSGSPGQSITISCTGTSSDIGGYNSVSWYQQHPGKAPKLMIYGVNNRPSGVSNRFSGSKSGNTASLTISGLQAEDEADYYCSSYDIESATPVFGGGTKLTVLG
VALUE: 1.8
//
BINDER: Example 92, conjugate of anti-mesothelin antibody MF-Ta (antibody, human IgG1, lambda, V domains shown, toxophore-linker on Cys sulfur, sites not given) VH: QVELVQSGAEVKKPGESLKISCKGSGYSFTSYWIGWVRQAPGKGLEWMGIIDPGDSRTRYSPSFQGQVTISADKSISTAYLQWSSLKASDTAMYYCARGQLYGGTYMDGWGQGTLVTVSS VL: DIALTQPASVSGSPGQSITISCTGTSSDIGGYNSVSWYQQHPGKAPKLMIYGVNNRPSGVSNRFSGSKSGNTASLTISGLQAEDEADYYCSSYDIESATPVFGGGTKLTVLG
VALUE: 38
